- System: E. coli (ATCC 25922)
- runDescription: microbe, parasite or virus in culture
- experimentalParameters: Escherichia coli, ATCC25922, read-out: MIC Compound alone, Table 1
quantity: MIC (µg/mL)
// units = µg/mL; emit number, no label

Req: Could you tell me which MIC is on file for CCNC(=O)Nc1nc2cc(-c3cnc([C@H](C)O)nc3)cc(-c3ccccn3)c2s1 ?
Resp: 4

Req: Please look up its MIC: CCNC(=O)Nc1nc2cc(-c3cnc(NS(=O)(=O)C(C)(C)CO)nc3)cc(-c3ccc(C)cn3)c2s1
Resp: 4

Req: Please report the recorded MIC for CCNC(=O)Nc1nc2cc(-c3cccnc3)cc(C(=O)OC)c2[nH]1 [Compound A-22, reference compound] .
Resp: 8

Req: Quick check: MIC of CCNC(=O)Nc1nc2cc(-c3cnc(NS(=O)(=O)N4CCCC4)nc3)cc(-c3ccc(C)cn3)c2s1 ?
Resp: 2
